Experimental details: PAMPA permeability
Test settings: PAMPA, pH 7.4
Readout type: Papp

Qu. // Papp lookup, key: C[C@H]1COC(=O)c2c(c3cc(Nc4ccnc(Cl)c4C#N)ccc3n(C)c2=O)N1
Ans. < 0.2 ×10⁻⁶ cm/s

----------
# key: entry, value: IC50
Test system: human BCL6 BTB domain (Homo sapiens, UniProt P41182)
Experimental details: biochemical
Test settings: read-out: BCL6 TR-FRET IC50; geometric mean of replicates
Protocol: 6. Supplementary tables … S-17 Table S1: summary statistics and individual replicate values … S-17 […] 1. Supplementary experimental: protein production, purification and crystallography 1.1 BCL6 constructs used for assays and crystallography A first construct of BCL6 BTB domain, which we will refer to as Trx-6His-HRV3C-BCL6, was obtained […] 3C protease cleavage site. For the TR-FRET assay, the Trx-6His-HRV3C-BCL6 protein construct was […] IC50 values were determined using […]
Please respond with the number in nM and leave the unit unwritten.

- Molecule: "Cn1c(=O)cc(NC(C)(C)c2ncc(C3CC3)cn2)c2cc(Nc3ccnc(Cl)c3C#N)ccc21 [Compound 3]"
  Units symbol: "nM"
  IC50: 26
- Molecule: "C[C@H]1COC(=O)c2c(c3cc(Nc4ccnc(Cl)c4C#N)ccc3n(C)c2=O)N1 [Compound 7]"
  Units symbol: "nM"
  IC50: 94

Consider the record given below.
Qu. // IC50 lookup, key: Cn1c(=O)c2c(c3cc(Nc4ccnc(Cl)c4C#N)ccc31)N[C@@H](C1CC1)C(F)(F)CO2 [Compound 1]
Ans. 3.9
